biological target: NAD(P)H dehydrogenase [quinone] 1 (Mus musculus) (UniProt Q64669); experiment: Induction of NQO1 activity in mouse Hepa-1c1c7 cells assessed as concentration require to double the specific enzyme activity after 48 hrs; type: cell-based
Sequence (Q64669 whole entry): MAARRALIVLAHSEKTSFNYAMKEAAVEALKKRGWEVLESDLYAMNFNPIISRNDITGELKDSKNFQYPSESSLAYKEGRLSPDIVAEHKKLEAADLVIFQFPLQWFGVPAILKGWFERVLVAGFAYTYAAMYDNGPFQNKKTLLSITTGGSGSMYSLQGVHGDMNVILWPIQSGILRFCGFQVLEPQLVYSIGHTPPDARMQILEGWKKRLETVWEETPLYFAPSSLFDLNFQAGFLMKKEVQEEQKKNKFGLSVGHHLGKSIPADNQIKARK
Recorded metric: CD (nM)

1. CC1(C)C=C(C#N)C(=O)C(C)(C)C1; 1900
2. C#CC1(C)C=C(C#N)C(=O)CC1 (stereo not drawn); 100
3. C#CC1(C)C=CC(=O)C(C#N)=C1 (stereo not drawn); 22
4. CC1(C#N)C=CC(=O)C(C#N)=C1 (stereo not drawn); 58
5. CC#CC1(C)C=CC(=O)C(C#N)=C1 (stereo not drawn); 33
6. CC1(C)C=CC(=O)C(C#N)=C1; 150
7. COC(=O)C1(C)C=CC(=O)C(C#N)=C1 (stereo not drawn); 320
8. C=CC1(C)C=CC(=O)C(C#N)=C1 (stereo not drawn); 150

// data source = ChEMBL document CHEMBL2062427
